Where do these numbers come from? They come from PubChem BioAssay (EPA / NIEHS).

test: ATG_CRE_CIS: Attagene CIS-FACTORIAL HepG2 Assay for human cAMP Responsive Element (CRE) binding protein 3 (AID 2282926); conditions: HepG2 CRE cis-reporter, Attagene multiplexed mRNA; actives raise or lower the signal
The source made the active and inactive calls. How the source made its calls: active means hit-call score of the fitted dose curve at least 0.9, where 1 is the maximum; inactive means score below 0.9.
Returns: one label drawn from label 1 = active, label 0 = inactive

Record excerpt, results attached:
[[record]]
compound = "C=CC(C)(O)CCC=C(C)C (stereo not drawn)"
qualitative_label = "label 0"

[[record]]
compound = "CCC1CCCCC1"
qualitative_label = "label 0"

[[record]]
compound = "CS(=O)(=O)c1ccc(C2=C(c3ccccc3)C(=O)OC2)cc1"
qualitative_label = "label 0"

[[record]]
compound = "C=COCCOCCOC=C"
qualitative_label = "label 0"


// param item: OCC#CCO ; yields the recorded call
label 0

// param item: CCCCCCCCCCCCCCN(CCO)CCO ; yields the recorded call
label 0

// param item: CCCCCCOC(=O)C(C)C ; yields the recorded call
label 0

// param item: Nc1ccc(N)c2c1C(=O)c1ccccc1C2=O ; yields the recorded call
label 1

###

biological target: Cellular tumor antigen p53 (Homo sapiens); experiment: TOX21_p53_BLA_p2_ratio: Tox21 HCT-116 p53 Agonism Beta-lactamase Assay, Ratio, Phase 2 (AID 2283592)
Results filed as inconclusive are left out. Active and inactive are the calls of the source. Rule for the calls: active = hit-call score of the fitted dose curve at least 0.9, where 1 is the maximum; inconclusive = response in the unintended direction; inactive = score below 0.9.
Returns: one label drawn from t for active, f for inactive

Record excerpt, results attached:
[[record]]
molecule = "COc1ccccc1N=Nc1c(S(=O)(=O)O)cc2cc(S(=O)(=O)O)cc(NC(C)=O)c2c1O"
qualitative_label = "f"

[[record]]
molecule = "O=C(O)COCC(=O)O"
qualitative_label = "f"

[[record]]
molecule = "COC(=O)c1cccnc1"
qualitative_label = "f"

[[record]]
molecule = "CCCCCCC(CO)CCCC (centres undefined)"
qualitative_label = "f"

[[record]]
molecule = "[O-]n1ccccc1=S.[O-]n1ccccc1=S.[Zn+2]"
qualitative_label = "t"


Then there is this molecule:
// param item: CCOC(=O)c1ccc(N)cc1 ; yields the recorded call
f

###

Assay: BSK_3C_uPAR: BioMAP Diversity Plus: 3C Assay for Urokinase-type plasminogen activator receptor (uPAR) Biomarker Activity (AID 2282998)
Conditions: BioMAP 3C HUVEC, uPAR biomarker ELISA; actives raise or lower the signal
Method: BSK_3C is a cell-based, multiplexed-readout assay that uses umbilical vein endothelium, a human vascular primary cell, with measurements taken at 24 hours after chemical dosing in a 96-well plate.BSK_3CAR is an assay component measured in the BSK_3C assay. It measures uPAR antibody related to regulation of gene expression using ELISA technology.Data from the assay component BSK_3CAR was analyzed into 1 assay endpoint. […]
The source made the active and inactive calls. Rule for the calls: active = hit-call score of the fitted dose curve at least 0.9, where 1 is the maximum; inactive = score below 0.9.
Returns: one label drawn from active, inactive

Record excerpt, results attached:
[[record]]
molecule = "C[C@@H]1CCN(C(=O)[C@H](CCCN=C(N)N)NS(=O)(=O)c2cccc3c2NC[C@H](C)C3)[C@@H](C(=O)O)C1"
qualitative_label = "inactive"

[[record]]
molecule = "O=C1OC2(c3ccccc31)c1ccc(O)c(Br)c1Oc1c2ccc(O)c1Br"
qualitative_label = "active"

[[record]]
molecule = "CCN(CC)C(=O)N(CC)CC"
qualitative_label = "inactive"


// param item: COc1cc(Cl)c(OC)cc1N ; yields the recorded call
inactive

// param item: CC(=O)C1(C)CC2=C(CCCC2(C)C)CC1C (configuration not stated) ; yields the recorded call
active

// param item: CC1(C)C2=CCCC(C)(C)[C@]23CC[C@H]1C3 ; yields the recorded call
active

// param item: CC(C)(C)CC(C)(C)c1ccc(OCCOCC[N+](C)(C)Cc2ccccc2)cc1 ; yields the recorded call
active

###

biological target: Nuclear receptor subfamily 1 group I member 2 (Homo sapiens) (UniProt O75469); assay: NVS_NR_hPXR: NovaScreen (NVS) Nuclear Receptor Binding Assay for human Pregnane X Receptor (PXR) (AID 2283365);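 further: a drop in FRET signal versus DMSO baseline means the compound binds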
Sequence (O75469 whole entry, looked up): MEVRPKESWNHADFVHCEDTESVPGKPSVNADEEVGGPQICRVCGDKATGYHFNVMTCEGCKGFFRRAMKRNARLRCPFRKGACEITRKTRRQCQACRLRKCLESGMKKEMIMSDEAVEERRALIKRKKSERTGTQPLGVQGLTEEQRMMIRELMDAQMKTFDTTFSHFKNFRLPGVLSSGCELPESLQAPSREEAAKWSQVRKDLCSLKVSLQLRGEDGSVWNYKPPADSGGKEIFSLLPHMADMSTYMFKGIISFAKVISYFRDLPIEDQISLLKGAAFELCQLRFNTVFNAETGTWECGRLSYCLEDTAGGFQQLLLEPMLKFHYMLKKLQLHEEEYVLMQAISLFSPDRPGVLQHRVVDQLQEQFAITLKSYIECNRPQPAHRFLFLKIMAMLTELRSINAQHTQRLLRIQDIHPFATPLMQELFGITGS
Results filed as inconclusive are left out. Activity calls are given as the source filed them. How the source made its calls: active means hit-call score of the fitted dose curve at least 0.9, where 1 is the maximum; inconclusive means response in the unintended direction; inactive means score below 0.9.
Returns: one label drawn from Yes (active), No (inactive)

[[record]]
compound = "C=C1CC[C@H](O)C/C1=C/C=C1\\CCC[C@]2(C)[C@@H]([C@H](C)/C=C/[C@H](C)C(C)C)CC[C@@H]12"
system_under_test = "Nuclear receptor subfamily 1 group I member 2 (Homo sapiens) (UniProt O75469)"
qualitative_label = "Yes"

[[record]]
compound = "CCc1ccc(O)cc1"
system_under_test = "Nuclear receptor subfamily 1 group I member 2 (Homo sapiens) (UniProt O75469)"
qualitative_label = "No"

[[record]]
compound = "CC(C)c1ccccc1O"
system_under_test = "Nuclear receptor subfamily 1 group I member 2 (Homo sapiens) (UniProt O75469)"
qualitative_label = "No"

[[record]]
compound = "CC(C)CCCCCCc1ccc(OCCOCCO)cc1"
system_under_test = "Nuclear receptor subfamily 1 group I member 2 (Homo sapiens) (UniProt O75469)"
qualitative_label = "No"

[[record]]
compound = "CCCCCCCC(=O)OCC(O)CO (centres undefined)"
system_under_test = "Nuclear receptor subfamily 1 group I member 2 (Homo sapiens) (UniProt O75469)"
qualitative_label = "No"

[[record]]
compound = "O=C1NC2NC(=O)NC2N1 (centres undefined)"
system_under_test = "Nuclear receptor subfamily 1 group I member 2 (Homo sapiens) (UniProt O75469)"
qualitative_label = "No"

[[record]]
compound = "CCCCC(CC)COC(=O)c1ccc(O)cc1 (centres undefined)"
system_under_test = "Nuclear receptor subfamily 1 group I member 2 (Homo sapiens) (UniProt O75469)"
qualitative_label = "No"

[[record]]
compound = "CSCCC=O"
system_under_test = "Nuclear receptor subfamily 1 group I member 2 (Homo sapiens) (UniProt O75469)"
qualitative_label = "No"


// param item: Cc1ccc(S(=O)(=O)Oc2ccc(N=Nc3ccc(-c4ccc(N=Nc5c(O)ccc6cc(S(=O)(=O)O)cc(S(=O)(=O)O)c56)c(C)c4)cc3C)cc2)cc1 ; yields the recorded call
Yes

// param item: Clc1ccc(C(c2ccccc2Cl)C(Cl)Cl)cc1 (centres undefined) ; yields the recorded call
No

###

experiment: BSK_SAg_Proliferation: Cell Proliferation Assessment in the BioMAP Diversity Plus: SAg Assay (AID 2283095); conditions: primary human HUVEC with PBMC;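 further: relative cell number as total protein by SRB absorbance in sub-confluent culture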
Calls of active or inactive are those of the source. The calls were made as follows: active = hit-call score of the fitted dose curve at least 0.9, where 1 is the maximum; inactive = score below 0.9.
Returns: one label drawn from active, inactive

Record excerpt, results attached:
[[record]]
compound = "CN(c1nccc(=O)[nH]1)C1CCN(c2nc3ccccc3n2Cc2ccc(F)cc2)CC1"
qualitative_label = "inactive"

[[record]]
compound = "CS(=O)(=O)OCCCCOS(C)(=O)=O"
qualitative_label = "inactive"

[[record]]
compound = "CN(C)C(=O)Nc1ccc(Oc2ccc(Cl)cc2)cc1"
qualitative_label = "inactive"


// param item: CCC(C)c1cc([N+](=O)[O-])cc([N+](=O)[O-])c1OC(=O)OC(C)C (stereo not given) ; yields the recorded call
active

// param item: C=C(C)C(=O)OCCOCCOCCOC(=O)C(=C)C ; yields the recorded call
inactive

// param item: CC(CN=Cc1ccccc1O)N=Cc1ccccc1O (stereo not given) ; yields the recorded call
inactive

// param item: C=C(C)[C@H]1CC=C(C)C(=O)C1 ; yields the recorded call
inactive

// param item: CCCCOC(=O)CCCCCCCC(=O)OCCCC ; yields the recorded call
inactive

// param item: C=C(C)C(=O)OCC(CC)(COC(=O)C(=C)C)COC(=O)C(=C)C ; yields the recorded call
active

// param item: COc1cc(Cl)c(OC)cc1N ; yields the recorded call
inactive

###

assay: ATG_ERE_CIS: Attagene CIS-FACTORIAL HepG2 Assay for Estrogen Response Element (ERE) (AID 2282940); details: HepG2 ERE cis-reporter, Attagene RNA transcript; actives raise or lower the signal
Calls of active or inactive are those of the source. Rule for the calls: active = hit-call score of the fitted dose curve at least 0.9, where 1 is the maximum; inactive = score below 0.9.
Returns: one label drawn from 1 (yes) for active, 0 (no) for inactive

[[record]]
compound = "C[C@@H]1CCN(C(=O)[C@H](CCCN=C(N)N)NS(=O)(=O)c2cccc3c2NC[C@H](C)C3)[C@@H](C(=O)O)C1"
qualitative_label = "0 (no)"

[[record]]
compound = "O=[N+]([O-])c1cccc(Cl)c1"
qualitative_label = "0 (no)"

[[record]]
compound = "Cc1ncc([N+](=O)[O-])n1CCO"
qualitative_label = "0 (no)"

[[record]]
compound = "Brc1ccc(Br)c(Br)c1"
qualitative_label = "0 (no)"

[[record]]
compound = "CC1(C)O[C@@H]2[C@@H](CO[C@@]3(COS(N)(=O)=O)OC(C)(C)O[C@@H]23)O1"
qualitative_label = "0 (no)"


// param item: Nc1c(Cl)cc(Cl)cc1[N+](=O)[O-] ; yields the recorded call
0 (no)

// param item: OCC(O)c1ccccc1 (configuration not stated) ; yields the recorded call
0 (no)

// param item: O=CN1CCOCC1 ; yields the recorded call
0 (no)

// param item: CC(C)CCCCCCc1ccc(OCCOCCO)cc1 ; yields the recorded call
0 (no)
